Tested on: KMS11 (human myeloma cell line)
assay comment: Cell proliferation assay (CellTiter-Glo) in KMS11 cells
Type: cell-based
condition: KMS-11, 72 h, Table 5, 3 days, read-out: KMS11-luc EC50
measurement label: EC50 (nM)
Enter your answer as a number in nM; do not include the unit.

C[C@H]1C[C@@H](c2ccncc2NC(=O)c2ccc(F)c(-c3c(F)cc(C4(C#N)CCOCC4)cc3F)n2)C[C@@H](N)[C@]1(C)O    101

Query block: What does the record list as EC50 for C[C@H]1C[C@@H](c2ccncc2NC(=O)c2nc(-c3c(F)cccc3F)sc2N)C[C@@H](N)[C@]1(C)O ?
Result block: 24

---

target under test: UniProt:P11309
Sequence (P11309 whole entry): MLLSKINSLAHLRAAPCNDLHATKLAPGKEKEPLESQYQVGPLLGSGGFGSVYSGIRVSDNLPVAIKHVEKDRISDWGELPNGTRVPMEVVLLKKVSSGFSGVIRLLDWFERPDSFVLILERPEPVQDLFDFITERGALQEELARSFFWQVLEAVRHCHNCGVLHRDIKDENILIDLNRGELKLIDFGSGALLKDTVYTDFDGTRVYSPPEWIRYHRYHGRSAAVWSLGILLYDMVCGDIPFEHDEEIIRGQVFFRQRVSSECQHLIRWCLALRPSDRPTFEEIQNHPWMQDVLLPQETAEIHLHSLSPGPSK
assay comment: Pim1 AlphaScreen assay (high ATP)
Reported pIC50 values are given for each entry in this list.
Note: pIC50 values are expressed as the negative base-10 logarithm of concentration in M.

C[C@H]1C[C@@H](c2ccncc2NC(=O)c2ccc(F)c(-c3c(F)cc(C4(F)COC4)cc3F)n2)C[C@@H](N)[C@]1(C)O    10.05
C[C@H]1C[C@@H](c2ccncc2NC(=O)c2ccc(F)c(-c3c(F)cc(C4(C#N)CCOCC4)cc3F)n2)C[C@@H](N)[C@]1(C)O    10.52

Query block: What does the record list as pIC50 for C[C@H]1C[C@@H](c2ccncc2NC(=O)c2ccc(F)c(-c3c(F)cc4c(c3F)OCC4)n2)C[C@@H](N)[C@]1(C)O ?
Result block: 10.70

Query block: What does the record list as pIC50 for C[C@H]1C[C@@H](c2ccncc2NC(=O)c2nc(-c3c(F)cccc3F)c(F)cc2N)C[C@@H](O)[C@@]1(O)CF ?
Result block: 9.24

Query block: What does the record list as pIC50 for C[C@H]1C[C@@H](c2ccncc2NC(=O)c2ccc(F)c(-c3c(F)cccc3F)n2)C[C@@H](O)[C@@]1(O)CF ?
Result block: 9.15

Query block: What does the record list as pIC50 for C[C@@H]1C[C@H](c2ccncc2NC(=O)c2ccc(F)c(-c3c(F)cc(S(C)(=O)=O)cc3F)n2)C[C@H](O)[C@@]1(C)O ?
Result block: 7.84

Query block: What does the record list as pIC50 for C[C@H]1C[C@@H](c2ccncc2NC(=O)c2ccc(F)c(-c3c(F)cc(OC4CCNCC4)cc3F)n2)C[C@@H](O)[C@]1(C)O ?
Result block: 9.96

Query block: What does the record list as pIC50 for Cc1noc(C)c1-c1cc(F)c(-c2nc(C(=O)Nc3cnccc3[C@H]3C[C@@H](N)[C@](C)(O)[C@@H](C)C3)ccc2F)c(F)c1 ?
Result block: 9.52

Query block: What does the record list as pIC50 for CC(C)Oc1cc(F)c(-c2nc(C(=O)Nc3cnccc3[C@H]3C[C@@H](O)[C@](C)(O)[C@@H](C)C3)c(N)cc2F)c(F)c1 ?
Result block: 9.02

Query block: What does the record list as pIC50 for C[C@@H]1C[C@H](c2ccncc2NC(=O)c2ccc(F)c(-c3c(F)cccc3F)n2)C[C@H](N)[C@@]1(C)O ?
Result block: 7.74

Query block: What does the record list as pIC50 for CCN1CCC(c2cc(F)c(-c3nc(C(=O)Nc4cnccc4[C@H]4C[C@@H](O)[C@](C)(O)[C@@H](C)C4)ccc3F)c(F)c2)CC1 ?
Result block: 9.74

Query block: What does the record list as pIC50 for C[C@H]1C[C@@H](c2ccncc2NC(=O)c2ccc(F)c(-c3ccc(F)c(F)c3)n2)C[C@@H](O)[C@]1(C)O ?
Result block: 6.67

Query block: What does the record list as pIC50 for C[C@H]1C[C@@H](c2ccncc2NC(=O)c2ccc(F)c(-c3c(F)cc(C4(O)CCC4)cc3F)n2)C[C@@H](N)[C@]1(C)O ?
Result block: 10.40
